// data source = ChEMBL document CHEMBL5241090

system: BGC-823; test: Cytotoxicity against human BGC-823 cells assessed as cell viability incubated for 1 hr by spectrophotometry; type: functional, cell-based; conditions: BGC-823, 1 h
pIC50: −log10 of the molar value.
MEASUREMENT_TYPE: pIC50

Sample COc1ccc(/C=C/c2c3c(cc[n+]2Cc2ccccc2)c2ccccc2n3CCCc2ccccc2)cc1 ; pIC50 observed: > 5.30

---

Consider the following compounds; for each one, report its IC50.
system: ACHN; experiment: Cytotoxicity against human ACHN cells; format: functional, cell-based
Give bare numbers, in µM.

The measured IC50 that CC(=O)N1N=C(c2ccco2)CC1c1cc2c([nH]c3ccccc32)c(-c2ccc(C(F)(F)F)cc2)n1 (configuration not stated) showed for ACHN is 1.94

Alright, here's another compound for you.
The measured IC50 that O=C(/C=C/c1cc2c([nH]c3ccccc32)c(-c2ccc(C(F)(F)F)cc2)n1)c1ccco1 showed for ACHN is 1.89
